Test system: insulitis
Test: Suppression of insulitis in NOD mice by oral administration
Type: in vivo
Conditions: fed orally
Where no end group is shown, it is not given here.

| substance | suppression of insulitis (in words) |
| --- | --- |
| B1-12: insulin B-chain peptide, amino acid residues 1-12 (FVNQHLCGSHLV; ends and bridges not checked; UniProt P01308 25-36, looked up, fragment) | suppressed insulitis |
| B10-22: insulin B-chain peptide, amino acid residues 10-22 (HLVEALYLVCGER; ends and bridges not checked; UniProt P01308 34-46, looked up, fragment) | suppressed insulitis |
| B11-30: insulin B-chain peptide, amino acid residues 11-30 (LVEALYLVCGERGFFYTPKT; ends and bridges not checked; UniProt P01308 35-54, looked up, fragment) | suppressed insulitis |

* * *

Test system: insulitis
Assay: Suppression of insulitis in NOD mice by oral administration
Assay type: in vivo
Details: fed orally, amount (mg) per Table 5; sacrificed at ten weeks of age
Where no end group is shown, it is not given here.
Below, each entry is listed with its recorded Insulitis Score.

| substance | Insulitis Score |
| --- | --- |
| B1-12: insulin B-chain peptide, amino acid residues 1-12 (FVNQHLCGSHLV; ends and bridges not checked; UniProt P01308 25-36, looked up, fragment) | 1.76 |
| B23-30: insulin B-chain peptide, amino acid residues 23-30 (GFFYTPKT; Insulin B chain; UniProt P01308 47-54, looked up, fragment) | 2.22 |
| B10-22: insulin B-chain peptide, amino acid residues 10-22 (HLVEALYLVCGER; ends and bridges not checked; UniProt P01308 34-46, looked up, fragment) | 1.71 |
| B11-30: insulin B-chain peptide, amino acid residues 11-30 (LVEALYLVCGERGFFYTPKT; ends and bridges not checked; UniProt P01308 35-54, looked up, fragment) | 1.44 |
